Origin of values: patent US10287255B2

TARGET UNDER TEST: human recombinant HDAC1 (Homo sapiens, UniProt Q13547)
Sequence (Q13547 whole entry): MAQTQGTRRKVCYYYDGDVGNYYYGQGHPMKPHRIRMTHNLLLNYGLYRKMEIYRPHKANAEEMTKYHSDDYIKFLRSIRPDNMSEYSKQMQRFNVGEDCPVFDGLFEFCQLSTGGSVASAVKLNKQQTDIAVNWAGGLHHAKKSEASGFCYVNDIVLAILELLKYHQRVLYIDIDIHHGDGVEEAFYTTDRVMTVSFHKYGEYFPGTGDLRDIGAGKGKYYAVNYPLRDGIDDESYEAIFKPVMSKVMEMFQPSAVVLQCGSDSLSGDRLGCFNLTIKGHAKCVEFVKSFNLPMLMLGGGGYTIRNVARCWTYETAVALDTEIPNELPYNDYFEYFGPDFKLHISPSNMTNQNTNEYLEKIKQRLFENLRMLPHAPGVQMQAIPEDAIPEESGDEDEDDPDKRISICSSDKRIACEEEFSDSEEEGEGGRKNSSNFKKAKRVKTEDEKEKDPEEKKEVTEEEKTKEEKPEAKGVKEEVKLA
MEASUREMENT NOTES: HDAC1 enzyme activity inhibition assay (in vitro, fluorimetric)
REPORTED CONDITIONS: human recombinant HDAC1, fluorimetric kit, 30° C. 60 minutes
REPORTED PROPERTY: IC50 (µM)

Worked cases, answers included:
C[C@@H]1CN(C(=O)N(C)c2ccccc2)C[C@H](C)N1Cc1ccc(C(=O)NO)cc1 :: 14.4
C[C@@H]1CN(C(=O)Cc2cccc(C3=CCOCC3)c2)C[C@H](C)N1Cc1ccc(C(=O)NO)cc1 :: 17.5
C[C@@H]1CN(Cc2ccc(C(=O)NO)cc2)C[C@H](C)N1Cc1ccccc1-c1ccncc1 :: 14.6
C[C@@H]1CN(Cc2ccc(C(=O)NO)cc2)C[C@H](C)N1C(=O)c1ccccc1-c1ccco1 :: 3.5

1: CC(=O)N1CC=C(c2ccccc2CN2[C@H](C)CN(Cc3ccc(C(=O)NO)cc3)C[C@@H]2C)CC1
2: Cc1ccccc1NC(=O)N1C[C@@H](C)N(Cc2ccc(C(=O)NO)cc2)[C@@H](C)C1
Hi, I'm comparing 1 with 2 and wondering which one has the bigger number for IC50. Any idea? Answer by quoting the chosen item's label. 1

---

TARGET UNDER TEST: human recombinant HDAC1 (Homo sapiens, UniProt Q13547)
MEASUREMENT NOTES: HDAC1 enzyme activity inhibition assay (in vitro, fluorimetric)
REPORTED CONDITIONS: human recombinant HDAC1, fluorimetric kit, 30° C. 60 minutes
REPORTED PROPERTY: IC50 (µM)

The examples below pair each entry with its known result.
C[C@@H]1CN(C(=O)c2cccs2)C[C@H](C)N1Cc1ccc(C(=O)NO)cc1 [Compound 114] :: 2.4
C[C@@H]1CN(Cc2ccc(C3=CCC(C)(C)CC3)cc2)C[C@H](C)N1Cc1ccc(C(=O)NO)cc1 [Compound 400] :: 11.3
C[C@@H]1CN(S(=O)(=O)c2ccccc2)C[C@H](C)N1Cc1ccc(C(=O)NO)cc1 [Compound 105] :: 1.6

1: C[C@@H]1CN(C(=O)c2cccc(-c3ccoc3)c2)C[C@H](C)N1Cc1ccc(C(=O)NO)cc1 [Compound 258]
2: C[C@@H]1CN(C(=O)Nc2cccc(Cl)c2)C[C@H](C)N1Cc1ccc(C(=O)NO)cc1 [Compound 104]
3: CCCCN(C(=O)N1C[C@@H](C)N(Cc2ccc(C(=O)NO)cc2)[C@@H](C)C1)c1ccccc1 [Compound 198]
List items by IC50 in falling order. List the labels according to the requested ordering. 3, 1, 2

---

TARGET UNDER TEST: human recombinant HDAC1 (Homo sapiens, UniProt Q13547)
MEASUREMENT NOTES: HDAC1 enzyme activity inhibition assay (in vitro, fluorimetric)
REPORTED CONDITIONS: human recombinant HDAC1, fluorimetric kit, 30° C. 60 minutes
pIC50: −log10 of the molar value.
REPORTED PROPERTY: pIC50

C[C@@H]1CN(Cc2ccc(C(=O)NO)cc2)C[C@H](C)N1C(=O)C1CCCO1 (stereo partly drawn) [Compound 402] :: 5.28

1: C[C@@H]1CN(Cc2ccc(/C=C/C(=O)NO)cc2)C[C@H](C)N1C(=O)c1ccco1 [Compound 322]
2: CC(C)NC(=O)N1C[C@@H](C)N(Cc2ccc(C(=O)NO)cc2)[C@@H](C)C1 [Compound 103]
Response body: label of entry with the larger pIC50; valid values 1 , 2 . To answer, give the label that identifies your chosen option. 1

1: C[C@@H]1CN(Cc2ccc(C(=O)NO)cc2)C[C@H](C)N1C(=O)c1ccc(CN2CCN(S(C)(=O)=O)CC2)cc1 [Compound 463]
2: C[C@@H]1CN(C(=O)c2cccc(-c3ccco3)c2)C[C@H](C)N1Cc1ccc(C(=O)NO)cc1 [Compound 257]
Between 1 and 2 , which one has the lower reported pIC50 value? Answer = label. 1
(1: 5.33, 2: 5.80)

I: C[C@@H]1CN(Cc2ccc(C(=O)NO)cc2)C[C@H](C)N1C(=O)c1ccc(CN2CCCCC2)cc1 [Compound 459]
II: CC(C)N1CC=C(c2ccccc2CN2[C@H](C)CN(Cc3ccc(C(=O)NO)cc3)C[C@@H]2C)CC1 [Compound 484]
I'd appreciate it if you could identify which of I and II has the greater pIC50. I would appreciate it if you answered with the label of your choice. I

P: C[C@@H]1CN(Cc2ccc(C(=O)NO)cc2)C[C@H](C)N1C(=O)c1cnccn1 [Compound 404]
Q: C[C@@H]1CN(Cc2ccc(C(=O)NO)cc2)C[C@H](C)N1Cc1ccccc1-c1cccnc1 [Compound 330]
R: C[C@@H]1CN(Cc2ccc(C(=O)NO)cc2)C[C@H](C)N1C(=O)NCc1ccccc1 [Compound 161]
Rank the items in ascending order with respect to pIC50. The response must list the labels following the requested ordering. Q, P, R
(Q: 4.74, P: 5.26, R: 5.54)

---

TARGET UNDER TEST: human recombinant HDAC6 (Homo sapiens)
Sequence (Q9UBN7 1-1215): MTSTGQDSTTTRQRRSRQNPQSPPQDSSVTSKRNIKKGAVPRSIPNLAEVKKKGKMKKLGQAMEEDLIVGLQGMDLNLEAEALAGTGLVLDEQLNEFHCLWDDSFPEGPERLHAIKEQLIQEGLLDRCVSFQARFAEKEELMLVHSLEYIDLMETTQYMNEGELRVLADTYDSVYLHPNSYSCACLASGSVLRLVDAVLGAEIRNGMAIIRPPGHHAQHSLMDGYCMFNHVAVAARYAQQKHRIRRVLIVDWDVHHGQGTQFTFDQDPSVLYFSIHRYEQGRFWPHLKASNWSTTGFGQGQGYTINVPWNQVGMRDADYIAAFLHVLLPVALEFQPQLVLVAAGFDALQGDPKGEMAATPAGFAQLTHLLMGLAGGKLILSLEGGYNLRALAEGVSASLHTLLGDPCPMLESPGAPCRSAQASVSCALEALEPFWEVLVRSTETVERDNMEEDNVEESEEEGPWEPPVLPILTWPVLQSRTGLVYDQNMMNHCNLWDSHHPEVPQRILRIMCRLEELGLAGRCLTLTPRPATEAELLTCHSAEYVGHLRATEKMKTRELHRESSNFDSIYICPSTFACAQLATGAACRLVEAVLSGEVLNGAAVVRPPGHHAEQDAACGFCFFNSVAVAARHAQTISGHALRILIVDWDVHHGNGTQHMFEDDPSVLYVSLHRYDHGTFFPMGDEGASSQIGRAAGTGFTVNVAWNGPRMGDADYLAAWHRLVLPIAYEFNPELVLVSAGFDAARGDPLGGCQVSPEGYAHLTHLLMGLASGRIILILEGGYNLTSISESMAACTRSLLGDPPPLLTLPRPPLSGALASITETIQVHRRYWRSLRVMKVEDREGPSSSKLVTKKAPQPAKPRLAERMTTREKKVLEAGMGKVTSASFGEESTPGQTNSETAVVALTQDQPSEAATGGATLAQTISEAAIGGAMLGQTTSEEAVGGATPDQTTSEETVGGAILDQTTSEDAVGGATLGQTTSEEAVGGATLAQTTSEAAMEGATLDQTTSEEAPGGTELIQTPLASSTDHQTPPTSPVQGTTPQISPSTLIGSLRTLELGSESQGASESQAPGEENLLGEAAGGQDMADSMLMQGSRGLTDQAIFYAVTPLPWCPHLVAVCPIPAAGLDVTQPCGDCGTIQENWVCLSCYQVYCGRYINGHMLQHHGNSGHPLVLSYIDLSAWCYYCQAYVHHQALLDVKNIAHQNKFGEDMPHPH
MEASUREMENT NOTES: HDAC6 enzyme activity inhibition assay (in vitro, fluorimetric)
REPORTED CONDITIONS: human recombinant HDAC6, fluorimetric kit, same protocol as HDAC1
REPORTED PROPERTY: IC50 (nM)

I: COc1cccc(NC(=O)N2C[C@@H](C)N(Cc3ccc(C(=O)NO)cc3)[C@@H](C)C2)c1
II: C[C@@H]1CN(Cc2ccc(C(=O)NO)cc2F)C[C@H](C)N1Cc1cccc(CN2CCOCC2)c1
// compare measured IC50, left I , right II , return larger Please reply using the label of the selected record. I
(I: 135 nM, II: 10 nM)

I: CC(C)=CCN1[C@H](C)CN(Cc2ccc(C(=O)NO)cc2)C[C@@H]1C
II: C[C@@H]1CN(Cc2ccc(C(=O)NO)cc2)C[C@H](C)N1C(=O)c1ccccn1
When their IC50 values are compared, which is larger, I or II ? # respond with the chosen item's label I

P: C[C@@H]1CN(Cc2ccc(C(=O)NO)cc2)C[C@H](C)N1Cc1ccccc1-c1ccco1
Q: CCN1CCN(Cc2cccc(C(=O)N3[C@H](C)CN(Cc4ccc(C(=O)NO)cc4)C[C@@H]3C)c2)CC1
R: C[C@@H]1CN(Cc2ccc(C(=O)NO)cc2)C[C@H](C)N1Cc1cccc(CN2CCN(CC(C)(C)O)CC2)c1
S: C[C@@H]1CN(Cc2ccc(C(=O)NO)cc2)C[C@H](C)N1C(=O)c1ccc(-c2ccco2)cc1
T: C[C@@H]1CN(Cc2ccc(C(=O)NO)cc2)C[C@H](C)N1CC(F)(F)F
List these items ordered by IC50, big to small. The labels, placed in the requested order, form the answer. S, P, R, T, Q
(S: 606 nM, P: 235 nM, R: 130 nM, T: 80 nM, Q: 49 nM)

I: C[C@@H]1CN(Cc2cccc(CN3CCCC3)c2)C[C@H](C)N1Cc1ccc(C(=O)NO)cc1
II: C[C@@H]1CN(Cc2ccc(C(=O)NO)cc2)C[C@H](C)N1C(=O)NCc1cccc(F)c1
Just tell me: smaller IC50 value, I or II ? Your answer should be the label of the entry you select. II
(II: 286 nM, I: 433 nM)
